Data credit: a melting point compilation (Tetko et al.; mined from patent text by program, amines drawn as free bases though some values may be those of a salt)

List of melting point values.

# COMPOUND, melting point
rows = [
    ("CCN1C(=O)N(SC(Cl)(Cl)Cl)C(=O)C1(C)C", "141 to 142 °C"),
    ("Nc1c(Cl)cc(Cl)n2nc(SCc3ccccc3)nc12", "118 to 119 °C"),
    ("CC(=O)OC1CSC(Oc2ccc(-c3cccnc3)cc2)C(OC(C)=O)C1OC(C)=O (stereo unspecified)", "150 °C"),
    ("Nc1ccc2ncc(Br)cc2c1", "151 to 152 °C"),
    ("CNC(=S)N1CCc2c(ncn2C)C1", "238 °C"),
    ("Cc1cc2cn[nH]c2c(C(=O)NC(C)C)c1NC(=O)c1cc(Br)nn1-c1ncccc1Cl", "163 to 166 °C"),
    ("CC(C)C(C)OC(=S)c1ccc(N)cc1Cl (stereo unspecified)", "43 to 46 °C"),
    ("C=CC=CC(=O)Nc1cc2c(Nc3cccc(Br)c3)ncnc2cn1", "210 to 215 °C"),
    ("CC(C)(C)OC(=O)NCCc1ccc(N)cc1", "71 to 73 °C"),
    ("O=C(O)COc1ccc(C(=C2CCCCCC2)c2ccc(O)cc2)cc1", "170 to 171 °C"),
    ("Cc1nn(-c2ccc(F)cc2)cc1C(=O)O", "194 to 195 °C"),
]

###

List of melting point values.
READOUT_LABEL: melting point

# MOLECULE, RESULT
rows = [
    ("CCC1C(C)=NN=C(c2ccc(O)c(OC)c2)c2cc(O)c(O)cc21 (stereo not given)", "252 to 253 °C"),
    ("CCCCCc1ccc(-c2ccc(-c3nc(N)nc(N)n3)cc2)cc1", "242 to 244 °C"),
    ("NCC1Cc2cc(C(F)(F)F)cc(-c3cccc(Cl)c3Cl)c2O1 (stereo not given)", "152 to 155 °C"),
    ("COc1ccc2nc(NC(=O)C(CC3CCCC3)c3ccc(S(=O)(=O)NCc4cccnc4)cc3)sc2n1 (stereo not given)", "227 to 229 °C"),
    ("CC(=O)c1cc2c(cn1)[nH]c1ccccc12", "174 to 175 °C"),
    ("O=C(Nc1cccc(OC(F)(F)F)c1)Nc1ccccc1CCO", "160 to 161 °C"),
    ("Cc1ccc(NC(=O)c2ccc(C(=O)Nc3ccccc3NC(=O)OC(C)(C)C)s2)cc1Nc1nc(-c2cccnc2)cs1", "218 °C"),
    ("Nc1nc2c(c(=O)[nH]1)CCc1ccccc1-2", "> 300 °C"),
    ("COc1ccc([C@@H]2CN(C)CC[C@@H]2NC(=O)c2ccc(C)cc2)cc1OC (relative stereo)", "145 to 146 °C"),
    ("Nc1cc(-c2ccc(Cl)cc2)on1", "141 to 143 °C"),
]

###

List of melting point values.
READOUT_LABEL: melting point

# MOLECULE, RESULT
data = [
    ("O=C1c2ccc(S(=O)(=O)c3ccccc3)cc2C(=O)c2c1c(Oc1ccccc1)c1ccccc1c2Oc1ccccc1", "260 to 270 °C"),
    ("CCCCn1c(COCC)nc2c(N)nc3ccc(-c4ccccc4)cc3c21", "186 to 187 °C"),
    ("COc1ccc(C=CC(=O)C=Cc2ccc(OC)cc2OC)c(OC)c1", "138 to 140 °C"),
    ("CN1C(=O)C(=O)N(Cc2ccccc2)CC1(CCO)c1ccc(Cl)c(Cl)c1 (centres undefined)", "198 °C"),
    ("COC(=O)CN(C)C(=O)CC(Cc1cccc2ccccc12)C(=O)NC(Cc1c[nH]cn1)C(=O)NC(CC(C)C)C(O)C(=O)OC (mixture of isomers)", "75 to 79 °C"),
    ("CC1COc2c(ccc(F)c2F)N1C(=O)C=NO (centres undefined)", "188 to 190 °C"),
    ("CC1=C(C(=O)OCCCN(C)Cc2ccccc2)C(c2ccccc2C(F)(F)F)c2c(ccnc2OC(C)C)N1 (centres undefined)", "143 to 144 °C"),
    ("CCOP(=O)(Cc1ccc(NC(=O)/C=C/c2cnn(Cc3ccccc3)c2-c2ccc(F)cc2)cc1)OCC", "207 to 208 °C"),
    ("CC(C(=O)OCC(c1cccc(C(F)(F)F)c1)N1CCNCC1)c1ccc2c(c1)CC(C(C)C)C2 (centres undefined)", "56 to 58 °C"),
    ("CCCCc1nc2ccsc2n1Cc1ccc(-c2ccccc2C(=O)O)cc1", "203 °C"),
    ("Cc1oc(-c2ccccc2)nc1COc1ccc(CCc2oc(-c3ccccc3)nc2CC(=O)O)cc1", "180 to 181 °C"),
    ("COC(=O)Nc1cc(F)c(C#N)cc1F", "129 °C"),
    ("CCCCCC(C)(O)C=CC1CCC(=O)C1CCCCCCC(=O)O (centres undefined)", "61 to 62 °C"),
    ("NN=C1c2ccccc2-c2ccc(F)cc21", "161 to 165 °C"),
    ("CCOC(=O)C1=C(NC(=O)Nc2cc(C(=O)OC(C)C)c(Br)cc2Cl)CCC1", "131 to 132 °C"),
    ("CCN(CC)CCOc1ccc(Nc2nccc(-c3ccncc3)n2)cc1", "85 to 87 °C"),
    ("Cc1cc(CO)cc(C)c1O", "102 to 104 °C"),
    ("CC[C@H](C)[C@H](NC(=O)O[C@@H](CC(C)C)C(=O)OCc1ccccc1)C(=O)NC(C)C", "90 to 92 °C"),
    ("Cn1cc(C=O)c(-c2ccoc2)n1", "77 to 78 °C"),
]

###

# MOLECULE, melting point
records = [
    ("Oc1ccccc1-n1cnc(-c2ccccc2)n1", "148 to 154 °C"),
    ("Cc1cc(C)cc(S(=O)c2cccc(F)c2C#N)c1 (stereo unspecified)", "146 to 147 °C"),
    ("Cc1cc2ncccn2n1", "54 to 57 °C"),
    ("O=c1c2ccccc2ncn1C1CCN(CCCc2ccccc2)CC1", "107 to 108 °C"),
    ("Cc1nn(CC(F)(F)COC(=O)c2cccnc2)c(-c2ccc(F)cc2)c1-c1ccc2c(c1)NC(=O)CO2", "169 to 172 °C"),
    ("O=C1c2ccccc2C2(Cc3ccccc3)NCCN12 (stereo unspecified)", "115 to 117 °C"),
]

###

List of melting point values.
READOUT_LABEL: melting point

# COMPOUND, READOUT_LABEL, RESULT
rows = [
    ("Oc1cccc2c1ccn2CCCCCc1ccccc1", "melting point", "109 to 110 °C"),
    ("COC(=O)CNc1ccccc1C#N", "melting point", "70 to 78 °C"),
    ("Cc1ccccc1-c1cc(-c2ccccc2C(=O)O)on1", "melting point", "162 to 164 °C"),
    ("CCC(O)(C#CC(=O)c1ccc(SC)cc1)CC", "melting point", "49 to 50 °C"),
    ("CC(=O)NN[C@@H]1c2cc(C#N)ccc2OC(C)(C)[C@H]1O (relative stereo)", "melting point", "209 to 210 °C"),
    ("O=C(O)CCCC(=O)N[C@@H](Cc1ccc(-c2ccccc2)cc1)C(=O)NCCCCNc1ncccn1", "melting point", "228 °C"),
    ("CN(C)Cc1ccc(C2(O)CCC3(CC2)OCCO3)cc1", "melting point", "84 to 86 °C"),
    ("CC(=O)N1c2ccc(-c3ccc(C#N)cc3)cc2C(Nc2ccc(F)cc2)CC1C (stereo not given)", "melting point", "140 °C"),
    ("CN1C(=O)SC(Cc2cn(-c3ccccc3)nc2OCc2ccccc2)C1=O (stereo not given)", "melting point", "115 to 116 °C"),
    ("NC1=NC(=O)N(CC2CC2)CC1Br (stereo not given)", "melting point", "139 to 143 °C"),
]

###

# SMILES_NOTATION, melting point
measured = [
    ("OCC(CO)(Cc1ccccc1)Cc1ccccc1", "105 °C"),
    ("COCc1c(C=NO)ncc2[nH]c3cccc(Cc4ccc(Cl)cc4)c3c12", "224 to 228 °C"),
    ("Cc1cccc(-n2nc(C)cc2-c2cc[nH]c(=O)c2)c1", "182 to 183 °C"),
    ("COC(=O)c1ccc(O)c(C(C)(C)C)c1", "144 to 145 °C"),
    ("COc1ccc(OC)c(-c2cn(C)cc(C#N)c2=O)c1", "209 to 211 °C"),
    ("CCCC(CCC)c1nc(-c2ccncc2)c(-c2ccc(Cl)cc2)n1CC", "152 to 155 °C"),
    ("CCCCCC(=O)OCCCOc1ccc(Nc2ccccc2)cc1", "50 to 51 °C"),
    ("NNC(=S)N1CCN(c2nc3cccccc-3n2)CC1", "224 to 228 °C"),
    ("COC(=O)C#CC(=O)c1cccc(Cl)c1", "73 to 75 °C"),
    ("O=C1NCc2c1c(O)nc1ccccc21", "340 to 350 °C"),
    ("CS(=O)(=O)Nc1cnc(NC(=O)[C@H](CC2CCCC2)c2ccc(S(C)(=O)=O)c(Cl)c2)cn1", "108 to 110 °C"),
]
